The reported numbers originate from PubChem BioAssay.

Provide the reported viability increase of each item.
experimental protocol: viability gain of MRP-1-high H69AR cells under doxorubicin, pilot screen, MRP-1 activator project, CellTiter-Glo, duplicate (AID 807);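 further: compound pretreatment 18-22 h then 72 h combined with doxorubicin; 0% = doxorubicin alone and 100% = vehicle without doxorubicin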
reported conditions: H69AR viability with doxorubicin, CellTiter-Glo luminescence; at 10 µM; hits give high values
Give bare numbers, in %.

compound	unit	viability increase
COC(=O)C(C(=O)OC)C(C(C)C)C(C(=O)OC)C(=O)OC	%	-1.49
CCCNC(=O)N1CCN(c2nc(C(C)C)c3c(c2C#N)CC(C)(C)OC3)CC1	%	2.34
COc1ccccc1N1CCN(CCCC(=O)c2ccc(F)cc2)CC1	%	-0.78
COCCn1c(C)cc(C(=O)CSc2nnc3ccccn23)c1C	%	-1.95
CCOC(=O)N1CCN(C(=O)c2cc3c(-c4ccc(Cl)cc4)nn(C)c3s2)CC1	%	-6.02
CCC(Sc1nccn1C)C(=O)Nc1nnc(C)s1 (stereo unspecified)	%	5

// for each compound below, give its viability increase
1. COCCn1c(=NC(=O)CSC(C)=O)sc2cc(OC)ccc21
2. O=C(Nc1nnc(-c2ccc(Cl)s2)o1)C1CCCCC1
3. COc1cccc(C(=O)NCC(c2cccnc2)N2CCN(c3ccccc3OC)CC2)c1 (stereo unspecified)
4. O=C(O)CSCCc1ccccn1
5. CCCN1C(=O)c2cc(C(=O)NC3CCCC3)ccc2C1O (stereo unspecified)

Response line:
1: -6.74; 2: -4.45; 3: -2.58; 4: -0.02; 5: -2.46

* * *

Provide the reported inhibition of each item.
experimental protocol: inhibitors of the yeast RAM network, pilot screen, dse1pr::URA3 reporter, 5-FOA selection (AID 869);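 further: 0% = DMSO wells with no growth and 100% = 10 µM 1-NA-PP1 with full growth; RAM network block rescues cells from 5-FOA so hits raise OD615 growth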
reported conditions: S. cerevisiae dse1pr::URA3 5-FOA growth, OD615, 2 d; at 10 µM; hits give high values; strain carries analog-sensitive mutant Cbk1 kinase
Give bare numbers, in %.

// worked examples, inhibition included
compound	inhibition (%)
Cc1ccc(-c2nc(CS(=O)(=O)CC(=O)N3CCc4ccccc4C3)c(C)o2)cc1	0.555
Cc1ccc(-c2nnc(N3CCCCC3)c3ccccc23)cc1S(=O)(=O)N1CCN(C)CC1	0.285
CCC(C)NC(=O)C1CCN(C(=O)c2ccccc2)CC1 (stereo unspecified)	1.18
Cc1nnc(SCCn2c(N3CCN(c4ccccc4)CC3)nc3c2c(=O)n(C)c(=O)n3C)s1	1.23
O=C1C2CCCN2C(c2ccccc2)N1c1ccc(F)cc1 (stereo unspecified)	2.05
CCCc1n[nH]c2c1C(=O)CC(C)(C)C2	0.98
CC1=C(C#N)C(c2cccnc2)C2=C(CC(C)(C)CC2=O)N1 (stereo unspecified)	1.09
Cc1cccc(Nc2ncnc3nc[nH]c23)c1	2.31

// for each compound below, give its inhibition
1. COc1cccc(-n2nnc3c(=O)n(C/C=C/c4ccccc4)cnc32)c1
2. Cc1cc(Nc2ccc(Br)cc2)n2nc(C)nc2n1
3. Cc1cc(C)c(S(=O)(=O)Nc2ccc(OCC(=O)O)cc2)c(C)c1

Response line:
[3.2, 2.85, -0.28]

* * *

experimental protocol: OD615 S. cerevisiae growth inhibition, permissive medium, pilot counter-assay, permissive growth control for S. cerevisiae lifespan shortening project (AID 705)
reported conditions: OD615, 24 h, at 10 µM, hits give high values
Calls of active or inactive are those of the source.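 The calls were made as follows: active = growth inhibition above 25% in both replicates, a cutoff set 3 SD above the mean; inconclusive = above 25% in only one replicate; inactive = the rest.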
measure name: growth inhibition

compound	growth inhibition
CN(Cc1ccccc1)C(=O)CCS(=O)(=O)c1ccc2c(c1)n(C)c(=O)c(=O)n2C	-4.66% (inactive)
Cc1ccc(S(=O)(=O)N(CC(=O)N2CCCC2)C2CCCCC2)cc1	-1.14% (inactive)
Cc1ccc(-c2nc(CSCC(=O)N3CCN(c4ccccn4)CC3)c(C)o2)cc1	-5.27% (inactive)
O=C1c2oc3ccccc3c(=O)c2C(c2cccc(O)c2)N1CCCN1CCOCC1 (configuration not stated)	-8.79% (inactive)
COc1ccc(CCNC(=O)COC(=O)c2cnc(C)cn2)cc1OC	-8.52% (inactive)

// for each compound below, give its growth inhibition
1. Nn1c(SCc2ccccc2)nnc1-c1ccco1
2. COCc1cc(C)nc2sc(C(=O)Nc3nccs3)c(N)c12
3. Clc1ccc(Cc2nnc(-c3ccccc3Br)o2)cc1
4. CCCCN(C)Cc1c(C)[nH]c2ccc(OCC)cc2c1=O
5. COC(=O)c1sc2ccccc2c1N
6. CCOC(=O)c1c(-c2ccc(C)o2)csc1N
7. COCC(=O)Nc1cc(=O)n(C)c(=O)n1C

Response line:
1. -8.86% (inactive)
2. -7.22% (inactive)
3. 1.55% (inactive)
4. -11.7% (inactive)
5. 1.37% (inactive)
6. 4.88% (inactive)
7. -4.37% (inactive)
